Biological target: human TLR9 (Homo sapiens, UniProt Q9NR96)
Sequence (Q9NR96 26-1032): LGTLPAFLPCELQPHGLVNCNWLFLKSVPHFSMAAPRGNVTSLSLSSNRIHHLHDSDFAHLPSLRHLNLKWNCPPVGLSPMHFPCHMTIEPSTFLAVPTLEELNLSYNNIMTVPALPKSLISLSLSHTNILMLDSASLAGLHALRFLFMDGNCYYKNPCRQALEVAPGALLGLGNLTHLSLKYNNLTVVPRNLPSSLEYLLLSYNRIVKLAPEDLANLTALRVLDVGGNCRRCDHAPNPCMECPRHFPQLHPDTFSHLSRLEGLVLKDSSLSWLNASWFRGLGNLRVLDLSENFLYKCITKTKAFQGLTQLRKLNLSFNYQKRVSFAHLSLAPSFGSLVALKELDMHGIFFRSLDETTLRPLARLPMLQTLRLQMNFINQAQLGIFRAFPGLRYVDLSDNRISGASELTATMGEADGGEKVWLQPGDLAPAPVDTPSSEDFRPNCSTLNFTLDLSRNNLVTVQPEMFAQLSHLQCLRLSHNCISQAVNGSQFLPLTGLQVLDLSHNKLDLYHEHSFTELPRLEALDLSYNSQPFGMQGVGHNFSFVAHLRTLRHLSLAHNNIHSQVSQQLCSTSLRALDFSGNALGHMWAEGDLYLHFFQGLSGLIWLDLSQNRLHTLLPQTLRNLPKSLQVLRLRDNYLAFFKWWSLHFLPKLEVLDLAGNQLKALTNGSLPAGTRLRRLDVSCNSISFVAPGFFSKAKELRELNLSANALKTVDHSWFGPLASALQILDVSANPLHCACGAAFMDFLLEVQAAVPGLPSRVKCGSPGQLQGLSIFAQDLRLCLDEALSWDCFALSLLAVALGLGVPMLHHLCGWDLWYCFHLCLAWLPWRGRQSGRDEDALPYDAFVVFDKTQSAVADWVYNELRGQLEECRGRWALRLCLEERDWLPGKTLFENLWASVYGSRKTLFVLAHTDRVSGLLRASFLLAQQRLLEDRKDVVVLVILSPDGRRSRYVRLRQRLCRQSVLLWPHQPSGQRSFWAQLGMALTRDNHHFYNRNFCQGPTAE
Test: TLR9 inhibition reporter assay (HEK-Blue cells, SEAP reporter, ODN2006 stimulation)
Settings: HEK-Blue cells overexpressing human TLR9, SEAP reporter, ODN2006 5 nM
pIC50: −log10 of the molar value.
pIC50 values for the compounds below.

> print(dat)
                                   compound  recorded.value
1  CCc1c(-c2ccnc3[nH]ncc23)[nH]c2ccc(C3CCN(C(C)C)CC3)cc12 [Example 957]    4.30 to 6.00

Case CCc1c(-c2ccnc3[nH]ncc23)[nH]c2ccc(C3CCN(Cc4ncco4)CC3)cc12 [Example 867] , human TLR9 (Homo sapiens, UniProt Q9NR96), pIC50 recorded as 4.30 to 6.00

Case Cc1c(-c2[nH]c3ccc(C4CCNCC4)cc3c2C(C)C)nn2ncnc2c1C [Example 32] , human TLR9 (Homo sapiens, UniProt Q9NR96), pIC50 recorded as 4.30 to 6.00

Case CC(C)c1c(-c2ccnc3[nH]ncc23)[nH]c2ccc(C3CCNC(=O)C3)cc12 (stereo not shown) [Example 248] , human TLR9 (Homo sapiens, UniProt Q9NR96), pIC50 recorded as < 4.30

Case CC(C)c1c(-c2ccc3ncnn3n2)[nH]c2ccc(C3CCNCC3)cc12 [Example 242] , human TLR9 (Homo sapiens, UniProt Q9NR96), pIC50 recorded as 4.30 to 6.00

Case CC(=O)NCCNCC(=O)N1CCC(c2ccc3[nH]c(-c4ccnc5[nH]ncc45)c(C(C)C)c3c2)CC1 [Example 573] , human TLR9 (Homo sapiens, UniProt Q9NR96), pIC50 recorded as 4.30 to 6.00
